- system: Brd2 (Homo sapiens, UniProt P25440)
- Sequence (P25440 whole entry): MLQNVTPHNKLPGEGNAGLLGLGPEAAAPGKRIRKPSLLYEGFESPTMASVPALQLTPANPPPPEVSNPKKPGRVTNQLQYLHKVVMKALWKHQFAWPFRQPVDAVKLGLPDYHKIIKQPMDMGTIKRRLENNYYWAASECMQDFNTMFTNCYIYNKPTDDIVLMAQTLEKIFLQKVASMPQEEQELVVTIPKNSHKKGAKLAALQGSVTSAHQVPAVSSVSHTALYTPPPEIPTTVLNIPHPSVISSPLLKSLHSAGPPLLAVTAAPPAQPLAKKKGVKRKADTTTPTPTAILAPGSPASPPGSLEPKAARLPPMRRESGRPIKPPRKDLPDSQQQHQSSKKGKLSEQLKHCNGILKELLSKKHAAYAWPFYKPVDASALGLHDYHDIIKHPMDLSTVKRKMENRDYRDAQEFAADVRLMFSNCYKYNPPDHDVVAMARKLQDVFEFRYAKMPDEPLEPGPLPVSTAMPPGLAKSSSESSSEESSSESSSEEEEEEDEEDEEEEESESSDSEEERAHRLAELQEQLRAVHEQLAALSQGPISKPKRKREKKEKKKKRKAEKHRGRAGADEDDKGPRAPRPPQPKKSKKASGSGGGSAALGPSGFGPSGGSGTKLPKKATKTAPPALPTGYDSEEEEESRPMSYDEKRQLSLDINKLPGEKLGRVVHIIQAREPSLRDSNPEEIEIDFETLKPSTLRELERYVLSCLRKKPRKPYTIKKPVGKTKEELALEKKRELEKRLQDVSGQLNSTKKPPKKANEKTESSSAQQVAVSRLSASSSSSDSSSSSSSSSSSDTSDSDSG
- assay name: Concentration-dependent BET degradation, immunoblot
- Format: cell-based
- Set-up: endogenous in cells; host or cells: HEK293 (CRL-1573), HeLa (CCL-2)
- conditions: HEK293, Brd2, 4 h, 1 nM-10 μM
- Protocol: Immunoblotting. Proteins were separated by SDS-PAGE on NuPage 4-12% Bis-Tris gels, followed by transfer to Amersham Protran 0.45 NC nitrocellulose membrane (GE Healthcare) using wet transfer. Membranes were blocked using 5% w/v milk in Tris-buffered saline (TBS) with 0.1% Tween-20. […] Blots were developed using a Bio-Rad ChemiDoc MP Imaging System, and band quantification was performed using Image Studio software (LiCor). […] Degradation data was plotted and analysed using Prism (Graphpad, version 8). […]
metric name: DC50

Give DC50 for the following compound: Cc1sc2c(c1C)C(c1ccc(Cl)cc1)=N[C@@H](CC(=O)NCCCCNC(=O)c1cc(S)c3ncc(C(=O)NCc4ccc(F)cc4)cc3c1)c1nnc(C)n1-2 [Example 11JQ12]
≥ 501 nM

Dear colleague, please send me the reported DC50 for Cc1sc2c(c1C)C(c1ccc(Cl)cc1)=N[C@@H](CC(=O)NCCCCNC(=O)c1cc(SC(=O)c3ccccc3)c3ncc(C(=O)NCCc4nccs4)cc3c1)c1nnc(C)n1-2 [Example 11JQ16] when you can.
51 to 500 nM

Answer with the recorded DC50 for the compound listed here: Cc1sc2c(c1C)C(c1ccc(Cl)cc1)=N[C@@H](CC(=O)NCCOCCNC(=O)c1cc(SC(=O)c3ccccc3)c3ncc(C(=O)NCCc4nccs4)cc3c1)c1nnc(C)n1-2 [Example 11JQ15]
51 to 500 nM

Give DC50 for Cc1sc2c(c1C)C(c1ccc(Cl)cc1)=N[C@@H](CC(=O)NCCOCCNC(=O)c1cc(S)c3ncc(C(=O)NCCc4nccs4)cc3c1)c1nnc(C)n1-2 [Example 11JQ1]
51 to 500 nM

Read off the recorded DC50 for Cc1sc2c(c1C)C(c1ccc(Cl)cc1)=N[C@@H](CC(=O)NCCCCNC(=O)c1cc(S)c3ncc(C(=O)NCCc4nccs4)cc3c1)c1nnc(C)n1-2 [Example 11JQ7]
51 to 500 nM

====

For each record, write down the corresponding Dmax.
- system: Brd4 (L) (Homo sapiens, UniProt O60885)
- Construct: endogenous in cells; host or cells: HEK293 (CRL-1573), HeLa (CCL-2)
- assay name: Concentration-dependent BET degradation, immunoblot
- Type: cell-based
- conditions: HeLa, 4 h, 1 nM-10 μM

Annotate the compound `Cc1sc2c(c1C)C(c1ccc(Cl)cc1)=N[C@@H](CC(=O)NCCCCNC(=O)c1cc(SC(=O)c3ccccc3)c3ncc(C(=O)NCCc4nccs4)cc3c1)c1nnc(C)n1-2` with its measured Dmax.
≥ 71%

# return recorded Dmax for input `Cc1sc2c(c1C)C(c1ccc(Cl)cc1)=N[C@@H](CC(=O)NCCOCCNC(=O)c1cc(S)c3ncc(C(=O)NCCc4nccs4)cc3c1)c1nnc(C)n1-2`
≥ 71%

Using known records, supply Dmax for `Cc1sc2c(c1C)C(c1ccc(Cl)cc1)=N[C@@H](CC(=O)NCCCCNC(=O)c1cc(S)c3ncc(C(=O)NCCc4nccs4)cc3c1)c1nnc(C)n1-2`
≥ 71%

Supply measured Dmax of `Cc1sc2c(c1C)C(c1ccc(Cl)cc1)=N[C@@H](CC(=O)NCCOCCNC(=O)c1cc(SC(C)(C)C)c3ncc(C(=O)NCCc4nccs4)cc3c1)c1nnc(C)n1-2` in your reply.
≤ 25%

Look up Dmax of `Cc1sc2c(c1C)C(c1ccc(Cl)cc1)=N[C@@H](CC(=O)NCCOCCNC(=O)c1cc(SC(=O)c3ccccc3)c3ncc(C(=O)NCCc4nccs4)cc3c1)c1nnc(C)n1-2` and report it.
51 to 70%

Quick one: give measured Dmax for `Cc1sc2c(c1C)C(c1ccc(Cl)cc1)=N[C@@H](CC(=O)NCCCCNC(=O)c1cc(S)c3ncc(C(=O)NCc4ccc(F)cc4)cc3c1)c1nnc(C)n1-2`
≥ 71%

====

- system: Brd4 (L) (Homo sapiens)
- Construct: endogenous in cells; host or cells: HEK293 (CRL-1573), HeLa (CCL-2)
- assay name: Concentration-dependent BET degradation, immunoblot
- Assay type: cell-based
- conditions: HeLa, 4 h, 1 nM-10 μM
- Method: Immunoblotting. Proteins were separated by SDS-PAGE on NuPage 4-12% Bis-Tris gels, followed by transfer to Amersham Protran 0.45 NC nitrocellulose membrane (GE Healthcare) using wet transfer. Membranes were blocked using 5% w/v milk in Tris-buffered saline (TBS) with 0.1% Tween-20. […] Blots were developed using a Bio-Rad ChemiDoc MP Imaging System, and band quantification was performed using Image Studio software (LiCor). […] Degradation data was plotted and analysed using Prism (Graphpad, version 8). […]
metric name: DC50

Consider the compound Cc1sc2c(c1C)C(c1ccc(Cl)cc1)=N[C@@H](CC(=O)NCCCCNC(=O)c1cc(S)c3ncc(C(=O)NCCc4nccs4)cc3c1)c1nnc(C)n1-2 [Example 11JQ7] tested on Brd4 (L) (Homo sapiens); state its DC50.
≤ 50 nM

Please tell me the measured DC50 for Cc1sc2c(c1C)C(c1ccc(Cl)cc1)=N[C@@H](CC(=O)NCCOCCNC(=O)c1cc(SC(=O)c3ccccc3)c3ncc(C(=O)NCCc4nccs4)cc3c1)c1nnc(C)n1-2 [Example 11JQ15] ; system: Brd4 (L) (Homo sapiens).
51 to 500 nM

Report measured DC50 on Brd4 (L) (Homo sapiens); entry: Cc1sc2c(c1C)C(c1ccc(Cl)cc1)=N[C@@H](CC(=O)NCCOCCNC(=O)c1cc(S)c3ncc(C(=O)NCCc4nccs4)cc3c1)c1nnc(C)n1-2 [Example 11JQ1]
51 to 500 nM

Report its DC50 with Brd4 (L) (Homo sapiens) as the test system: Cc1sc2c(c1C)C(c1ccc(Cl)cc1)=N[C@@H](CC(=O)NCCCCNC(=O)c1cc(S)c3ncc(C(=O)NCc4ccc(F)cc4)cc3c1)c1nnc(C)n1-2 [Example 11JQ12]
≥ 501 nM

Provide measured DC50 on Brd4 (L) (Homo sapiens) for Cc1sc2c(c1C)C(c1ccc(Cl)cc1)=N[C@@H](CC(=O)NCCCCNC(=O)c1cc(SC(=O)c3ccccc3)c3ncc(C(=O)NCCc4nccs4)cc3c1)c1nnc(C)n1-2 [Example 11JQ16] please.
51 to 500 nM

====

- system: Brd2 (Homo sapiens, UniProt P25440)
- assay name: Concentration-dependent BET degradation, immunoblot
- Type: cell-based
- Set-up: endogenous in cells; host or cells: HEK293 (CRL-1573), HeLa (CCL-2)
- conditions: HeLa, Brd2, 4 h, 1 nM-10 μM
metric name: DC50

# return recorded DC50 for input `Cc1sc2c(c1C)C(c1ccc(Cl)cc1)=N[C@@H](CC(=O)NCCCCNC(=O)c1cc(SC(=O)c3ccccc3)c3ncc(C(=O)NCCc4nccs4)cc3c1)c1nnc(C)n1-2`
51 to 500 nM

Tell me measured DC50 for `Cc1sc2c(c1C)C(c1ccc(Cl)cc1)=N[C@@H](CC(=O)NCCCCNC(=O)c1cc(S)c3ncc(C(=O)NCCc4nccs4)cc3c1)c1nnc(C)n1-2` please.
≥ 501 nM

Return the recorded DC50 value; entry: `Cc1sc2c(c1C)C(c1ccc(Cl)cc1)=N[C@@H](CC(=O)NCCOCCNC(=O)c1cc(SC(=O)c3ccccc3)c3ncc(C(=O)NCCc4nccs4)cc3c1)c1nnc(C)n1-2`
51 to 500 nM

Annotate the compound `Cc1sc2c(c1C)C(c1ccc(Cl)cc1)=N[C@@H](CC(=O)NCCOCCNC(=O)c1cc(S)c3ncc(C(=O)NCCc4nccs4)cc3c1)c1nnc(C)n1-2` with its measured DC50.
51 to 500 nM

Give the reported DC50 for this compound. `Cc1sc2c(c1C)C(c1ccc(Cl)cc1)=N[C@@H](CC(=O)NCCCCNC(=O)c1cc(S)c3ncc(C(=O)NCc4ccc(F)cc4)cc3c1)c1nnc(C)n1-2`
≥ 501 nM

====

- system: Brd4 (S) (Homo sapiens, UniProt O60885)
- Construct: endogenous in cells; host or cells: HEK293 (CRL-1573), HeLa (CCL-2)
- assay name: Concentration-dependent BET degradation, immunoblot
- Type: cell-based
- conditions: HEK293, Brd4 (S), 4 h, 1 nM-10 μM
metric name: DC50

Kindly indicate its recorded DC50. Item: Cc1sc2c(c1C)C(c1ccc(Cl)cc1)=N[C@@H](CC(=O)NCCCCNC(=O)c1cc(S)c3ncc(C(=O)NCCc4nccs4)cc3c1)c1nnc(C)n1-2 [Example 11JQ7]
51 to 500 nM

Provide measured DC50 value, entry: Cc1sc2c(c1C)C(c1ccc(Cl)cc1)=N[C@@H](CC(=O)NCCCCNC(=O)c1cc(S)c3ncc(C(=O)NCc4ccc(F)cc4)cc3c1)c1nnc(C)n1-2 [Example 11JQ12]
51 to 500 nM

State its DC50 for this compound: Cc1sc2c(c1C)C(c1ccc(Cl)cc1)=N[C@@H](CC(=O)NCCCCNC(=O)c1cc(SC(=O)c3ccccc3)c3ncc(C(=O)NCCc4nccs4)cc3c1)c1nnc(C)n1-2 [Example 11JQ16]
≤ 50 nM

Provide one value: measured DC50 of Cc1sc2c(c1C)C(c1ccc(Cl)cc1)=N[C@@H](CC(=O)NCCOCCNC(=O)c1cc(S)c3ncc(C(=O)NCCc4nccs4)cc3c1)c1nnc(C)n1-2 [Example 11JQ1]
51 to 500 nM

Dear colleague, please send me the reported DC50 for Cc1sc2c(c1C)C(c1ccc(Cl)cc1)=N[C@@H](CC(=O)NCCOCCNC(=O)c1cc(SC(=O)c3ccccc3)c3ncc(C(=O)NCCc4nccs4)cc3c1)c1nnc(C)n1-2 [Example 11JQ15] when you can.
51 to 500 nM
